Cited source for all entries: ChEMBL document CHEMBL1150722

# inhibition listing for each entry below
# TARGET_OF_ASSAY: Angiotensin-converting enzyme (Rattus norvegicus)
# EXPERIMENT_DESCRIPTION: Inhibition of rat lung ACE at 150 ug/ml relative to control
Lab book: enter the figure in %, no units written.

{"columns": ["SMILES_STR", "NUMERIC_RESULT"],
 "data": [
  ["O=c1c(O[C@@H]2O[C@H](CO)[C@@H](O)[C@H](O)[C@H]2O)c(-c2ccc(O)c(O)c2)oc2cc(O)cc(O)c12", 19],
  ["O=C(O[C@H]1[C@H](Oc2c(-c3ccc(O)cc3)oc3cc(O)cc(O)c3c2=O)O[C@H](CO)[C@@H](O)[C@@H]1O)c1cc(O)c(O)c(O)c1", 35],
  ["O=C(O[C@H]1[C@H](Oc2c(-c3ccc(O)c(O)c3)oc3cc(O)cc(O)c3c2=O)O[C@H](CO)[C@@H](O)[C@@H]1O)c1cc(O)c(O)c(O)c1", 39]
]}

Problem: Consider the compound O=c1c(O[C@@H]2O[C@H](CO)[C@@H](O)[C@H](O)[C@H]2O)c(-c2ccc(O)cc2)oc2cc(O)cc(O)c12 and give its measured inhibition.
Result: 53

----------
# inhibition listing for each entry below
# TARGET_OF_ASSAY: Angiotensin-converting enzyme (Rattus norvegicus)
# EXPERIMENT_DESCRIPTION: Inhibition of rat lung ACE at 75 ug/ml relative to control
Lab book: enter the figure in %, no units written.

Check out these entries, answers already filled in.
{"columns": ["SMILES_STR", "U", "inhibition"],
 "data": [
  ["O=c1c(O[C@@H]2O[C@H](CO)[C@@H](O)[C@H](O)[C@H]2O)c(-c2ccc(O)cc2)oc2cc(O)cc(O)c12", "%", 22],
  ["O=c1c(O[C@@H]2O[C@H](CO)[C@@H](O)[C@H](O)[C@H]2O)c(-c2ccc(O)c(O)c2)oc2cc(O)cc(O)c12", "%", 9]
]}

Problem: Consider the molecule O=C(O[C@H]1[C@H](Oc2c(-c3ccc(O)c(O)c3)oc3cc(O)cc(O)c3c2=O)O[C@H](CO)[C@@H](O)[C@@H]1O)c1cc(O)c(O)c(O)c1 and give its measured inhibition.
Result: 18

Problem: Consider the molecule O=C(O[C@H]1[C@H](Oc2c(-c3ccc(O)cc3)oc3cc(O)cc(O)c3c2=O)O[C@H](CO)[C@@H](O)[C@@H]1O)c1cc(O)c(O)c(O)c1 and give its measured inhibition.
Result: 15
